Target: PPARD/RXRA LBD heterodimer (Homo sapiens, UniProt Q03181)
Sequence (Q03181 171-441 limits assumed, one chain of several): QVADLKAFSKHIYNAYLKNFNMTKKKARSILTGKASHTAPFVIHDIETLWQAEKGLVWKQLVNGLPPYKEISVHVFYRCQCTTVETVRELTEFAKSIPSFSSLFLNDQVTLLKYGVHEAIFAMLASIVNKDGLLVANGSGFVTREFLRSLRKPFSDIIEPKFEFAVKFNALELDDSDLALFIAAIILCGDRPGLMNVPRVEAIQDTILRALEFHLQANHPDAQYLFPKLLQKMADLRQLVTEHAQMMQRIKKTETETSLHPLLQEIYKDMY
Assay: TR-FRET NCOR1 ID2 peptide recruitment
pEC50: −log10 of the molar value.
QUANTITY NAME: pEC50

{"COMPOUND STRUCTURE STRING": "CS(=O)(=O)c1ccc(C#N)cc1-c1cc(=O)c2c(F)cc(F)cc2[nH]1", "STUDY TARGET": "PPARD/RXRA LBD heterodimer (Homo sapiens, UniProt Q03181)", "RESULT": "< 4.00"}

###

Biological target: RXRA:PPARG LBD heterodimer (Homo sapiens)
Sequence (P37231 231-505): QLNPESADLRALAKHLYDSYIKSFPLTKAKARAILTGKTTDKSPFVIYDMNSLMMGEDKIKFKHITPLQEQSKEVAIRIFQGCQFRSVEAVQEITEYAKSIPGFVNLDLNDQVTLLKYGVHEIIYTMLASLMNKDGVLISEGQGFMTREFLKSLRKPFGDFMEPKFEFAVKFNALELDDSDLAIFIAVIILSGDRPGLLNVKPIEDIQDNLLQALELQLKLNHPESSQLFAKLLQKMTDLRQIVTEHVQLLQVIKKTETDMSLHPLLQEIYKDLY
Sequence (P19793 228-462 partner): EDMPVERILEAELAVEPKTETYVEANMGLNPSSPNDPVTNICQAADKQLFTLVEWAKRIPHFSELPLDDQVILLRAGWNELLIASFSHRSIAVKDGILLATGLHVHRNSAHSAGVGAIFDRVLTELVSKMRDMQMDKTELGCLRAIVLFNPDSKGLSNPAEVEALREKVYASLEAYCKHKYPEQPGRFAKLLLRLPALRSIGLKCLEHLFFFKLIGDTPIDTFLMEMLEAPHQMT
Assay: TR-FRET MED1 LxxLL peptide blockade
pIC50: −log10 of the molar value.

{"COMPOUND": "O=C(Nc1ccccc1)c1cc([N+](=O)[O-])ccc1Cl [GW9662]", "pIC50": 7.01}
{"COMPOUND": "N#Cc1ccc(Cl)c(-c2cc(=O)c3c(F)cc(F)cc3[nH]2)c1 [FTX-6746]", "pIC50": 6.13}

###

Recorded pEC50, one value per entry.
Biological target: RXRA:PPARG LBD heterodimer (Homo sapiens)
Sequence (P37231 231-505): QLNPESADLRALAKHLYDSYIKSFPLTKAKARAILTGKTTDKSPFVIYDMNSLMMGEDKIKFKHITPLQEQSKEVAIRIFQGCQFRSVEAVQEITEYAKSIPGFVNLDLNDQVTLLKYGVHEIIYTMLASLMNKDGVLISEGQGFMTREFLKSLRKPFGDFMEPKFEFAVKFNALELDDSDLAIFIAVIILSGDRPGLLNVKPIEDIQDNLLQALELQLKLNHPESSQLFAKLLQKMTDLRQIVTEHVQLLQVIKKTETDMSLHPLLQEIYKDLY
Sequence (P19793 228-462 partner): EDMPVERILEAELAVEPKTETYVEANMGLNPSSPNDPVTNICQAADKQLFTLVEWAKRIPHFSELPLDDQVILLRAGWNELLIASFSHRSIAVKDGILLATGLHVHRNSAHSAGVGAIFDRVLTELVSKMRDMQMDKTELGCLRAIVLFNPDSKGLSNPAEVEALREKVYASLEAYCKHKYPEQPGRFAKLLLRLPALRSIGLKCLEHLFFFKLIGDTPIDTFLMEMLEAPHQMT
Test: TR-FRET NCOR1 ID2 peptide recruitment
pEC50: −log10 of the molar value.

{"COMPOUND STRUCTURE STRING": "CS(=O)(=O)c1ccc(C#N)cc1-c1cc(=O)c2c(F)cc(F)cc2[nH]1", "pEC50": 6.70}
{"COMPOUND STRUCTURE STRING": "N#Cc1ccc(Cl)c(-c2cc(=O)c3c(F)cc(F)cc3[nH]2)c1", "pEC50": 6.16}
{"COMPOUND STRUCTURE STRING": "N#Cc1ccc(Br)c(-c2cc(=O)c3c(F)cc(F)cc3[nH]2)c1", "pEC50": 7.15}
{"COMPOUND STRUCTURE STRING": "N#Cc1ccc(F)c(-c2cc(=O)c3c(F)cc(F)cc3[nH]2)c1", "pEC50": 5.30}

###

Target: PPARA/RXRA LBD heterodimer (Homo sapiens, UniProt Q07869)
Sequence (Q07869 196-468 limits assumed): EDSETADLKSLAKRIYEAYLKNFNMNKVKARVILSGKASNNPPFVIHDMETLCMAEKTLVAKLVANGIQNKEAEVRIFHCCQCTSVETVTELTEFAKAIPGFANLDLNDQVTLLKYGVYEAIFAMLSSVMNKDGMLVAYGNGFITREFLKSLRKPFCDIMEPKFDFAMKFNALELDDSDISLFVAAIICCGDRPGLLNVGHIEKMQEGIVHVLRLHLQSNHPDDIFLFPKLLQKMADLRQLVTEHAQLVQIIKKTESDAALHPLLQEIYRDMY
Sequence (P19793 228-462 partner): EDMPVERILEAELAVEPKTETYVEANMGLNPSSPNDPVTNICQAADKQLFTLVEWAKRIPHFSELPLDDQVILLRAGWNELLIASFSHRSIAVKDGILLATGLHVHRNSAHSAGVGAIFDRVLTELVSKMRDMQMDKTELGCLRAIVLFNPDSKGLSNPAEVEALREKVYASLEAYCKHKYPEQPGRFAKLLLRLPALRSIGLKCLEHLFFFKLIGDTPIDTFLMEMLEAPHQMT
Assay: TR-FRET NCOR1 ID2 peptide recruitment

{"COMPOUND STRUCTURE STRING": "CS(=O)(=O)c1ccc(C#N)cc1-c1cc(=O)c2c(F)cc(F)cc2[nH]1", "EC50": "> 100 µM"}
